Every entry's value here was drawn from patent EP0364819A2.

Target: membrane receptors of human breast cancer cells (Homo sapiens, UniProt P30968)
Construct: human prostate and breast cancer cell membranes; endogenous in cells
Sequence (P30968 1-328): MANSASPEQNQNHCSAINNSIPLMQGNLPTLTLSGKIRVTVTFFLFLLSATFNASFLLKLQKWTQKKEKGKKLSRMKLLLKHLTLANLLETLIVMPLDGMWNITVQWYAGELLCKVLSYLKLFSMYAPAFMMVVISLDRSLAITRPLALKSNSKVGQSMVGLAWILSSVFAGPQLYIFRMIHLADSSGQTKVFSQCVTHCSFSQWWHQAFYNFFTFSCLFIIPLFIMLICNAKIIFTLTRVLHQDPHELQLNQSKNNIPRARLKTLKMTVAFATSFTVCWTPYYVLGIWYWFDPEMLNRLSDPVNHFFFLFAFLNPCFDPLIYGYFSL
Test: Receptor binding to human breast cancer cell membranes with 125I-labeled [D-Trp6]LHRH
Details: Table 1, agonistic analogues, high affinity binding sites, ¹²⁵l-labeled [D-Trp⁶]LHRH
Method: (c)Affinity for peptides to human prostate and breast cancer cell membranes. This is determined by using labelled LHRH and [D-Trp⁶]LHRH. The assay is carried out similarly to that described by T. Kadar et al., Proc. Natl. Acad. Sci. USA, 85, 890-894 (1988). Table 2 presents the antiovulatory activity of the claimed compounds having LHRH-inhibiting properties. The inhibitory action was determined in vivo, in 4-day cycling rats as described [A. Corbin and C. W. Beattie, Endocr. […]
REPORTED_ENDPOINT: Binding affinity, Ka1, for membrane receptors of cancer cells (nM⁻¹)

(P) pGlu-His-Trp-Ser-Tyr-D-Lys[Cu⁺⁺)(POLP) ₂(A₂pr)]-Leu-Arg-Pro-Gly-NH₂ [XIX]
(Q) pGlu-His-Trp-Ser-Tyr-D-Lys[(Cu⁺⁺)(SAL) 2(A₂pr)]-Leu-Arg-Pro-Gly-NH₂ [VIA]
Asked: For P and Q , which recorded Binding affinity, Ka1, for membrane receptors of cancer cells is lower? Reply briefly: the label of your chosen item.
Given back: Q

====

Recorded measurements of Hormonal activity* %Blockade of ovulation, one per entry
Tested on: 4-day cycling rats
Assay: In vivo antiovulatory activity in 4-day cycling rats
Details: Dose 3 µg/rat; 4-day cyclic rats
Output spec: scalar in %, unitless text.

[
  {
    "SUBSTANCE": "Ac-D-Nal(2)-D-Phe(4Cl)-D-Pal(3)-Ser-Arg-D-Lys[(Cu⁺⁺)(POL)₂(DL-A₂pr)]-Leu-Arg-Pro-D-Ala-NH₂ [XXIV]",
    "SYSTEM_NAME": "4-day cycling rats",
    "READOUT_VALUE": 50
  },
  {
    "SUBSTANCE": "Ac-D-Nal(2)-D-Phe(4Cl)-D-Trp-Ser-Arg-D-Lys[(Cu⁺⁺)(SAL)₂(DL-A₂pr)]-Leu-Arg-Pro-D-Ala-NH₂ [XII]",
    "SYSTEM_NAME": "4-day cycling rats",
    "READOUT_VALUE": 20
  },
  {
    "SUBSTANCE": "Ac-D-Nal(2)-D-Phe(4Cl)-D-Trp-Ser-Arg-D-Lys[(Ni⁺⁺)(SAL)₂(DL-A₂pr)]-Leu-Arg-Pro-D-Ala-NH₂ [Example XV]",
    "SYSTEM_NAME": "4-day cycling rats",
    "READOUT_VALUE": 20
  }
]

Would you kindly look at the next entry?
Asked: Identify Hormonal activity* %Blockade of ovulation associated with the substance Ac-D-Nal(2)-D-Phe(4Cl)-D-Pal(3)-Ser-Arg-D-Lys[(Cu⁺⁺)(POLP)₂(DL-A₂pr)]-Leu-Arg-Pro-D-Ala-NH₂ [Example XX]
Given back: 80
